# Tested on: HCC-2998 colon
# assay_remarks: NCI-60 one-dose screen, 48 h (100 = growth as untreated, 0 = no growth, -100 = all killed)
# particulars: 10 µM unless noted
The panel holds about 83,000 compounds, 20% with a hit somewhere; the sample as a whole holds those more often.
Listing of entries alongside the reported growth.
Please reply with the bare figure in % and do not write the unit itself.

// worked examples, growth included
{"compound": "C=CC1=C[C@@H]2[C@@H]3O[C@]4(CC[C@H](O4)[C@@H](C)C[C@@H](O)C3=O)C[C@H](O)C3=NCC[C@@]32CC1", "target_of_assay": "HCC-2998 colon", "growth, %": -81.2}
{"compound": "O[C@H](CN1CC1)[C@@H](O)CN1CC1", "target_of_assay": "HCC-2998 colon", "growth, %": 97}
{"compound": "COc1ccc(/C=C\\c2cc(OC)c(OC)c(OC)c2)cc1OCC(=O)Nc1nc2ccc(C(F)(F)F)cc2s1", "target_of_assay": "HCC-2998 colon", "growth, %": 64.7}
{"compound": "N#C[Se]CCN1C(=O)c2ccccc2C1=O", "target_of_assay": "HCC-2998 colon", "growth, %": 53.1}
{"compound": "CCCCCSC1C2C(=O)C(Br)=CC13CCNc1c(O)c4c5c(c13)=[N+]2CCC=5C=N4 (configuration not stated)", "target_of_assay": "HCC-2998 colon", "growth, %": -68.4}

Noted for O=[N+]([O-])c1cc([N+](=O)[O-])c(Nn2c3ccccc3c3ccccc32)c([N+](=O)[O-])c1 : its growth reads 1.54

Summary for this compound, COc1cc(C=Nc2cccc(C(=O)O)c2)ccc1N(CCCl)CCCl : growth is 74.4

So, N#C[Se]Cc1cc(-c2ccccc2)n(-c2ccc(S(N)(=O)=O)cc2)n1 ? Its growth was 25.1

Data point: COc1cc(NCCCN=C(N)N)c2ncccc2c1 ; growth = 94.3

growth for COc1ccc(/C=C/c2cc(OC)c(OC)c(OC)c2)cc1NC(=O)/C=C/c1ccc(F)cc1 is 17.2

Entry C=CCCCN=C=S , growth reported as 102

Recorded result, COC(=O)[C@@H](C)C[C@H](Cc1ccccc1)NC(=O)c1cccc([C@@H](C[C@H](C(C)C)N(C)C(=O)[C@@H](NC(=O)[C@H]2CCCCN2C)C(C)C)OC(C)=O)n1 , growth: 2.68

---

# Tested on: OVCAR-8 ovarian
# assay_remarks: NCI-60 one-dose screen, 48 h (100 = growth as untreated, 0 = no growth, -100 = all killed)
# particulars: 10 µM unless noted
This is part of a sample that, as a whole, favours compounds with a hit. Of some 83,000 tested, about 20% had one in any assay.
Assign Condition met to entries whose growth meets or exceeds 20%; assign Condition not met to the rest.

{"compound": "CC[CH2][Sn]([Cl])([Cl])[CH2]CC", "target_of_assay": "OVCAR-8 ovarian", "category": "Condition met"}
{"compound": "C[C@@H]1CCC2[C@@H](C)[C@H](OC(=O)CCC(=O)NCCNC(=O)Cc3cc(=O)oc4cc(N(C)C)ccc34)O[C@@H]3O[C@]4(C)CC[C@@H]1C23OO4 (stereo partly specified)", "target_of_assay": "OVCAR-8 ovarian", "category": "Condition met"}
{"compound": "CC(=O)O[C@H]1CC[C@@]2(C)C(=CC[C@H]3[C@@H]4C[C@@H](N5CC5)[C@H](C(C)=O)[C@@]4(C)CC[C@@H]32)C1", "target_of_assay": "OVCAR-8 ovarian", "category": "Condition met"}
{"compound": "O=[N+]([O-])c1cc([N+](=O)[O-])c(Cl)cc1Cl", "target_of_assay": "OVCAR-8 ovarian", "category": "Condition not met"}
{"compound": "COc1cc2c(=O)n(C3CCCCCCC3)c3c4cc[nH]c4ncc3c2cc1OC", "target_of_assay": "OVCAR-8 ovarian", "category": "Condition met"}

Could you verify whether the entry N#C[S-].[Au+].c1ccc(CN2[CH-]N(Cc3ccccc3)C(c3ccccc3)=C2c2ccccc2)cc1 shows growth of no less than 20%?
Condition not met

---

# Test system: NCI-H322M lung
# assay_remarks: NCI-60 one-dose screen, 48 h (100 = growth as untreated, 0 = no growth, -100 = all killed)
# particulars: 10 µM unless noted
About 83,000 compounds went through this panel and 20% of them were active in at least one assay; those are over-represented in the sample as a whole.
measurement_name: growth (%)
The response must be a number in % with no trailing unit.

Examples from the recorded data:
{"molecule": "C[C@@H]1CCC2[C@@H](C)[C@H](OC(=O)CCC(=O)NCCNC(=O)Cc3cc(=O)oc4cc(N(C)C)ccc34)O[C@@H]3O[C@]4(C)CC[C@@H]1C23OO4 (stereo not given in full)", "target_of_assay": "NCI-H322M lung", "growth / %": 79.2}
{"molecule": "COc1ccc(C(=O)c2sc3nc4c(cc3c2N)N2CCC4CC2)cc1OC", "target_of_assay": "NCI-H322M lung", "growth / %": 107}
{"molecule": "COC(=O)N[C@H]1CCc2c(Br)c(OC)c(OC)c(OC)c2-c2ccc(SC)c(=O)cc21", "target_of_assay": "NCI-H322M lung", "growth / %": 28}
{"molecule": "O=C1C2C(C(=O)[N]1[Hg][c]1ccccc1)C1(Cl)C(Cl)=C(Cl)C2(Cl)C1(Cl)Cl (stereo not given)", "target_of_assay": "NCI-H322M lung", "growth / %": 45.1}

Query COC(=O)[C@@H](C)C[C@H](Cc1ccccc1)NC(=O)c1csc([C@@H](C[C@H](C(C)C)N(C)C(=O)[C@@H](NC(=O)[C@H]2CCCCN2C)c2ccc(F)cc2)OC(C)=O)n1 yields growth of 37.4

---

# Tested on: UACC-62 melanoma
# assay_remarks: NCI-60 one-dose screen, 48 h (100 = growth as untreated, 0 = no growth, -100 = all killed)
# particulars: 10 µM unless noted
# Procedure: Growth inhibition of the UACC-62 human tumor cell line is measured as a screen for anti-cancer activity. Cells are grown in 96 well plates and exposed to the test compound for 48 hours. Compounds are tested at a single concentration, which is 10^-5 M for most compounds. The reported endpoint is percent growth (GI% or GIPRCNT), where numbers from 0 - 100% represent growth inhibition, and numbers from -100% - 0 represent cell death. For example, a value of 40 represents 60% growth inhibition. […]
The panel holds about 83,000 compounds, 20% with a hit somewhere; the sample as a whole holds those more often.
This listing pairs compounds with measured growth.
Could you give me the number in %? Just the number is fine.

Example compounds with recorded growth:
{"compound": "CCCCCCCCCCCCNC(c1ccccc1)C(O)c1ccccc1 (stereo not drawn)", "measured_value": 96.7}
{"compound": "CC(=O)O[C@H](C[C@H](C(C)C)N(C)C(=O)[C@@H](NC(=O)[C@H]1CCCCN1C)C(C)C)c1nc(C(=O)N[C@@H](Cc2ccccc2)C[C@H](C)C(=O)O)c(C)s1", "measured_value": 48.1}
{"compound": "CCC1CN1CCCCN1CC1CC (stereo not drawn)", "measured_value": 97.2}

growth recorded for this compound, COc1ccc(/C=C\c2cc(OC)c(OC)c(OC)c2)cc1NC(=O)/C=C/c1cc(OC)c(OC)c(OC)c1 , is 31.4

Query C[C@@]1(CCCCCCCCCc2ccc(O)cc2)C[C@]2(C)OC(=O)C[C@@H]2OO1 yields growth of 95.2

# growth of O=C(O)c1c(Cl)n(Cc2ccc(O)cc2)c2ccc(O)cc12 = 98.9

Lab book: growth of COC(=O)CCc1c[nH]c2ccc(N(CCCl)CCCl)cc12 noted as 49.3

For record O=C(Nc1ccc(O)cc1)C(Cl)(Cl)Cl the listed growth is 93.8

---

# Test system: SK-MEL-28 melanoma
# assay_remarks: NCI-60 one-dose screen, 48 h
# particulars: 10 µM unless noted
The panel holds about 83,000 compounds, 20% with a hit somewhere; the sample as a whole holds those more often. Active and inactive are the calls of the source. The calls were made as follows: active = growth percent below 10; inactive = the rest.
Pick from active, inactive when you respond.

Some solved cases for reference:
{"compound": "CC12CC(=O)C3(SC#N)C(CCC4=CC(=O)CCC43C)C1CCC2=O (stereo unspecified)", "target_of_assay": "SK-MEL-28 melanoma", "category": "inactive"}
{"compound": "COc1ccc(/C=C\\c2cc(OC)c(OC)c(OC)c2)cc1OCC(=O)Nc1nc2ccc(OC(F)(F)F)cc2s1", "target_of_assay": "SK-MEL-28 melanoma", "category": "inactive"}
{"compound": "COc1cc2c(cc1OCCCn1c(-c3ccccn3)nc3ccccc31)N=C[C@@H]1CCCN1C2=O", "target_of_assay": "SK-MEL-28 melanoma", "category": "active"}
{"compound": "O=P(Oc1ccc(Cl)cc1)(N1CC1)N1CC1", "target_of_assay": "SK-MEL-28 melanoma", "category": "inactive"}
{"compound": "CC1=C2[C@@H](CC1)[C@]1(C)O[C@@](C(C)C)(C[C@H]1O)[C@H]2OC(=O)C1CC1c1ccccc1 (stereo partly specified)", "target_of_assay": "SK-MEL-28 melanoma", "category": "inactive"}

Kindly review the next compound as well.
Hi, do you know how CCCCCCCCOC(=O)CCN1CC1 came out in this test?
inactive

Where do the numbers come from? From PubChem BioAssay (NCI).
